measured_target: Calmodulin-1 (Homo sapiens) (UniProt P0DP23)
assay_remarks: calcium-bound CALM1 binders on microarrays, profiling panel, artefact control for SMM control-protein annotation, biochemical, small-molecule microarray, Cy5-labelled CALM1, plus calcium (AID 1112);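 further: score merges spot fluorescence with signal to noise from triplicate slides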
experimental_parameters: Cy5-CALM1 binding fluorescence, higher = more signal
value_kind: composite z-score
Field format: numeric only.

Provide composite z-score, system Calmodulin-1 (Homo sapiens) (UniProt P0DP23), entry "C=CC[C@]1(C(N)=O)N=C(c2ccc(OCCCO)cc2)O[C@H]1c1ccccc1N=[N+]=[N-]"
0.0151

Provide composite z-score, system Calmodulin-1 (Homo sapiens) (UniProt P0DP23), entry "COCCOC(=O)N1C(=O)[C@@]2(c3cc(C#CCCO)ccc31)[C@H](C(=O)N1CCN(c3ncccn3)CC1)[C@H]1C(=O)O[C@H](c3ccccc3)[C@H](c3ccccc3)N1[C@@H]2c1ccc(OCCO)cc1"
0.0318

Provide composite z-score, system Calmodulin-1 (Homo sapiens) (UniProt P0DP23), entry "CN(C)C(=O)[C@]1(CCS(=O)(=O)c2ccccc2)N=C(c2ccc(OCCCO)cc2)O[C@@H]1c1ccccc1CN=[N+]=[N-]"
0.68

Provide composite z-score, system Calmodulin-1 (Homo sapiens) (UniProt P0DP23), entry O=C1C2C=CC(C(O)C(c3ccccc3)c3ccccc3)N(Nc3ccccc3F)C2C(=O)N1c1ccccc1 (centres undefined)
0.713

Provide composite z-score, system Calmodulin-1 (Homo sapiens) (UniProt P0DP23), entry "Cc1ccc(S(=O)(=O)N2[C@@H](c3ccccc3)C(C(=O)O)=C[C@H]2C(C)(C)C)cc1"
0.75

Provide composite z-score, system Calmodulin-1 (Homo sapiens) (UniProt P0DP23), entry "[N-]=[N+]=NCc1ccccc1[C@H]1OC(c2ccc(OCCCO)cc2)=N[C@@]1(Cc1ccccc1N=[N+]=[N-])C(=O)O"
0.83

Provide composite z-score, system Calmodulin-1 (Homo sapiens) (UniProt P0DP23), entry "C=C(CCCC)C(=O)CC[C@H](OC(=O)c1ccccc1-c1ccccc1C(=O)O)c1cccc(OCCO)c1"
-0.832

Provide composite z-score, system Calmodulin-1 (Homo sapiens) (UniProt P0DP23), entry "C=CCOC(=O)[C@@H]1[C@H]2C(=O)O[C@H](c3ccccc3)[C@H](c3ccccc3)N2[C@H](c2ccc(OCCOC(=O)[C@@H]3C[C@@H]4C(=O)N[C@@H](CC(C)C)C(=O)N4[C@@H]3c3ccc(O)cc3)cc2)[C@@]12C(=O)Nc1ccc(I)cc12"
0.289

Provide composite z-score, system Calmodulin-1 (Homo sapiens) (UniProt P0DP23), entry "COC(=O)[C@@]1(Cc2ccc(F)cc2)[C@H]2c3cc(C(=O)N(C)C)n(Cc4ccsc4Br)c3C[C@H]2CN1C(=O)c1ccccc1"
0.981

Provide composite z-score, system Calmodulin-1 (Homo sapiens) (UniProt P0DP23), entry "COC(=O)[C@@]1(Cc2ccc(F)cc2)[C@H]2c3cc(C(=O)N4CCCC4)n(CCSCCO)c3C[C@H]2CN1C(=O)c1ccccc1"
0.318

Provide composite z-score, system Calmodulin-1 (Homo sapiens) (UniProt P0DP23), entry "CC(C)N1C(=O)[C@@]2(Cc3ccccc31)c1ccccc1C(=O)N(Cc1ccccc1C(F)(F)F)[C@H]2c1ccc(CO)cc1"
-0.0481

Provide composite z-score, system Calmodulin-1 (Homo sapiens) (UniProt P0DP23), entry "COc1ccc(C#Cc2ccc3c(c2)[C@]2(C(=O)N3)[C@H](c3ccccc3OCCO)N3[C@H](c4ccccc4)[C@H](c4ccccc4)OC(=O)[C@H]3[C@@H]2C(=O)NC[C@H](O)c2ccccc2)cc1"
-0.127

Provide composite z-score, system Calmodulin-1 (Homo sapiens) (UniProt P0DP23), entry COc1ccc(C(O)C2C=CC3C(=O)N(C)C(=O)C3N2Nc2ccccc2)cc1 (centres undefined)
0.283

Provide composite z-score, system Calmodulin-1 (Homo sapiens) (UniProt P0DP23), entry "C=CC[C@]1(C(=O)NCCN2CCOCC2)N=C(c2ccc(OCCCO)cc2)O[C@H]1c1ccccc1"
-0.442

Provide composite z-score, system Calmodulin-1 (Homo sapiens) (UniProt P0DP23), entry "O=C1N(Cc2ccccc2)Cc2ccccc2C[C@@]12COC(c1ccc(OCCCO)cc1)=N2"
0.519

Provide composite z-score, system Calmodulin-1 (Homo sapiens) (UniProt P0DP23), entry "CCCCC(=C=CC[C@@H](O)c1ccc(OCCO)cc1)CCO"
0.0486

Provide composite z-score, system Calmodulin-1 (Homo sapiens) (UniProt P0DP23), entry "C=C(COC)C(=O)CC[C@H](OC(C)=O)c1ccccc1OCCO"
-1.1

Provide composite z-score, system Calmodulin-1 (Homo sapiens) (UniProt P0DP23), entry "C=C(/C=C\CNS(=O)(=O)c1ccc(C)cc1)[C@H](O)[C@H]1CCCN1S(=O)(=O)c1ccccc1[N+](=O)[O-]"
-0.477

Provide composite z-score, system Calmodulin-1 (Homo sapiens) (UniProt P0DP23), entry "CCOC(=O)C[C@H]1[C@H](OC(=O)c2ccc(-c3ccccc3)cc2)[C@@H](NC(=O)c2ccc(-c3ccccc3)cc2)c2cc(OCCCO)ccc2N1C(=O)c1ccccc1"
0.912

Provide composite z-score, system Calmodulin-1 (Homo sapiens) (UniProt P0DP23), entry "C=CCNC(=O)[C@@H]1[C@H]2C(=O)O[C@H](c3ccccc3)[C@H](c3ccccc3)N2[C@H](c2ccc(O)cc2)[C@@]12C(=O)N(C(=O)OCCOC)c1ccc(C#CCC(C(=O)OC)C(=O)OC)cc12"
0.0394

Provide composite z-score, system Calmodulin-1 (Homo sapiens) (UniProt P0DP23), entry CC(C)c1ccc(NN2C(C(O)C(C)c3ccccc3)C=CC3C(=O)N(c4ccccc4)C(=O)C32)cc1 (centres undefined)
1.35

Provide composite z-score, system Calmodulin-1 (Homo sapiens) (UniProt P0DP23), entry "CC(=O)NCCCC[C@@H]1NC(=O)[C@H]2C[C@@H](C(=O)NCCCCCN)[C@@H](c3ccc(O)cc3)N2C1=O"
0.973

Provide composite z-score, system Calmodulin-1 (Homo sapiens) (UniProt P0DP23), entry "COC(=O)[C@@]1(Cc2ccc(F)cc2)[C@H]2c3cc(C(=O)N4CCCC4)n(CCc4c[nH]c5cc(F)ccc45)c3C[C@H]2CN1C(=O)c1ccccc1"
1.2

Provide composite z-score, system Calmodulin-1 (Homo sapiens) (UniProt P0DP23), entry CCCCN1CC=CC23O[C@@H]4/C=C\CCCOC(=O)C4[C@H]2C(=O)N(CCCCCCO)[C@@H]3C1=O (some centres undefined)
-0.439
